System: OVCAR-8 ovarian
test-name: NCI-60 one-dose screen, 48 h (100 = growth as untreated, 0 = no growth, -100 = all killed)
test-context: 10 µM unless noted
This is part of a sample that, as a whole, favours compounds with a hit. Of some 83,000 tested, about 20% had one in any assay.
Exercise: for every item that follows, state its recorded growth.
Write it as a number; the unit % goes unstated.

Request: Query: growth; subject: `COc1ccc(-c2cc(C(=O)N=Nc3c(O)[nH]c4ccc(Br)cc34)no2)cc1`
Response: 99.8

Request: I'd like to know its growth. The compound in question is `O=C1/C(=C/c2ccccc2)SC(=S)N1CCc1ccc(O)cc1`
Response: 96.3

Request: Fill in: growth of `C=C1c2nc3ccccc3n2C=C(c2ccc(Cl)cc2)N1Cc1ccc(OC)cc1` is ___
Response: 91.1

Request: Fill in the blank: the reported growth of `CC(=O)Nc1ccc(S(=O)(=O)Nc2cccc(-c3nc(-c4ccc(NC(=O)c5cccnc5)cc4Cl)no3)c2)cc1` is ____.
Response: 38.8

Request: So what's the measured growth for this one? `NC(=O)c1cc(Cl)ccc1NC(=O)/C=C/c1ccccc1`
Response: 51.2

Request: Param item = `Oc1cccc2ccc(N/N=C/c3cc(CN4CCOCC4)c(O)c4ncccc34)nc12` ; retrieve measured growth.
Response: 13

Request: Entry under review: `O=C1Nc2c(ccc(Cl)c2Cl)/C1=C\c1cc(C(F)(F)F)cc(C(F)(F)F)c1` . Reported growth?
Response: 27.1

Request: // query growth value for entry `Cc1[nH]c(-c2cc(N)ccc2Cl)c2c1C(=O)CCCC2`
Response: 22.2

Request: Can you look up the measured growth of `C(=C\c1nccc2c1[nH]c1ccccc12)/c1ccccc1` for me?
Response: 26.1

Request: Requested field: growth. Item: `O=S(=O)(Nc1ccc(NS(=O)(=O)c2ccccc2)c(Cl)c1)c1ccccc1`
Response: 103

###

System: HCT-116 colon
test-name: NCI-60 one-dose screen, 48 h
test-context: 10 µM unless noted
The panel holds about 83,000 compounds, 20% with a hit somewhere; the sample as a whole holds those more often. The source made the active and inactive calls. How the source made its calls: active means growth percent below 10; inactive means the rest.
Mark one answer only. Choices: active, inactive

Request: Outcome? `COc1ccc(-c2nnc(SCC(=O)c3ccc(Cl)cc3)o2)cc1`
Response: inactive

Request: Hey, what did the test say about `COC(=O)c1ccc2oc(NC(=O)c3ccc(Nc4ccc([N+](=O)[O-])cc4C)c([N+](=O)[O-])c3)nc2c1` ?
Response: inactive

Request: What did the test return for `C=C(C)[C@@H]1CC[C@]2(C(N)=O)CC[C@]3(C)[C@H](CC[C@@H]4[C@@]5(C)C/C(=C/c6ccco6)C(=O)C(C)(C)[C@@H]5CC[C@]43C)[C@@H]12` ?
Response: inactive

Request: Outcome? `Oc1ccc(N=Cc2ccccc2O)cc1`
Response: inactive

Request: I would be grateful if you could indicate the recorded call for `COc1ccc(-n2nc(C)c3c(Nc4ccc(NC(=O)Nc5ccc(Cl)c(C(F)(F)F)c5)cc4)ncnc32)cc1` .
Response: active

Request: Dear colleague, could you share the recorded outcome for `C#CC(F)(F)[C@]1(O)CC[C@H]2[C@@H]3CCC4=CC(=O)CCC4=C3[C@@H](c3ccc(C(C)=O)cc3)C[C@@]21C` when you have a moment?
Response: inactive

Request: Query: recorded result category for `N#C/C(=C\c1ccc(-c2cc(C(F)(F)F)ccc2Cl)o1)c1nc(-c2ccco2)cs1` in this test
Response: inactive

Request: How did this test come out for `Cc1oc(-c2ccc(Cl)cc2Cl)cc1C(=O)Nc1nccs1` ?
Response: inactive

Request: Dear colleague, could you share the recorded outcome for `C#CCOc1ccc2ncnc(NCc3cccc(NC(=O)CCl)c3)c2c1` when you have a moment?
Response: inactive

Request: Call for entry `COc1cc2c(cc1O)CC[C@@H]1[C@@H]2CC[C@]2(C)[C@@H](OCCCN(C)C)CC[C@@H]12` :
Response: active

Request: # fetch the recorded call for `CC[C@@H]1O[C@H](O[C@@H](c2cnc[nH]2)[C@H](NC(=O)c2nc([C@H](CC(N)=O)NC[C@@H](N)C(N)=O)nc(N)c2C)C(=O)N[C@H](C)[C@H](O)[C@H](C)C(=O)N[C@@H](C(=O)NCCc2nc(-c3nc(C(=O)NCCCCN=C(N)N)cs3)cs2)[C@@H](C)O)[C@H](O[C@@H]2O[C@H](CO)[C@H](O)[C@H](OC(N)=O)[C@@H]2O)[C@H](C)[C@@H]1C` here
Response: inactive

Request: Field: outcome | Entry: CCN1CCC2(CC1)NC(=O)c1c(c3ccc(Cl)c(Cl)c3n1C)C2C#N (configuration not stated)
Response: inactive

Request: Given `COc1cccc(-c2nc(SCC(=O)Nc3ccc(C(=O)/C=C/c4ccc(OC)c(OC)c4)cc3)[nH]c(=O)c2C#N)c1` , state the outcome it received in this test.
Response: inactive

Request: Hello, I am checking results. What call was entered for COc1ccc(C2Nc3c(c(C(C)(C)C)nn3-c3ccccc3)C(=O)CS2)cc1 (configuration not stated) ?
Response: inactive

Request: Test call for this compound, please: `Cc1ccc(O)c(N2C(=NCc3ccco3)NS(=O)(=O)c3cnccc32)c1`
Response: inactive

Request: What call does the record list for `NC(=O)c1cc(Br)ccc1NC(=O)/C=C/c1ccccc1` ?
Response: inactive

Request: // return assay outcome for `Cc1cn2c(/C=C3/C(=O)Nc4c3ccc3ccccc43)c(C(F)(F)F)nc2s1`
Response: inactive

###

Test system: T-47D breast
test-name: NCI-60 one-dose screen, 48 h (100 = growth as untreated, 0 = no growth, -100 = all killed)
test-context: 10 µM unless noted
This is part of a sample that, as a whole, favours compounds with a hit. Of some 83,000 tested, about 20% had one in any assay.
quantity: growth (%)
Respond numerically; units are % and should not be typed.

Request: What growth appears in the records for this compound with T-47D breast? `COc1ccc(N=Nc2nccs2)c(O)c1`
Response: 36.5

Request: Find growth (T-47D breast) for the entry `COc1cc(-c2nn(-c3ccc(Br)cc3)cc2C(=O)O)ccc1O`
Response: 98.5

Request: Param readout = growth; param system = T-47D breast; param query = `CCCCCCCCCCCCC[N+](C)(C)Cc1ccccc1` ; response: value
Response: 15.1

Request: Recall the recorded growth for `Cc1ccc(OC(=O)c2ccc(Cl)cc2)cc1` with T-47D breast and state it.
Response: 103

Request: Find the measured growth: item `Cc1nc2c3c(-c4ccccc4)c(-c4ccccc4)oc3ncn2n1` , target or system T-47D breast.
Response: 70

Request: Test system T-47D breast; read-out growth; what value for `O=C(COc1cccc(/C=C2\COc3ccc(Cl)cc3C2=O)c1)c1ccc(Cl)cc1` ?
Response: 71.9

Request: Any idea what growth came out for `CC(=O)Nc1ccc(S(=O)(=O)Nc2cccc(-c3nc(-c4ccc(NC(=O)c5cccnc5)cc4Cl)no3)c2)cc1` on T-47D breast?
Response: 14

Request: Given the entry `CCNC(=O)Oc1ccc(/C(=C(\C)c2ccc(Cl)cc2)c2ccc(OCCN(CC)CC)cc2)cc1` , what growth was observed with T-47D breast?
Response: 25.5

Request: Record lookup: for T-47D breast, what growth belongs to `COc1ccc(/C=C/c2nc(-c3n[nH]c(=O)n3-c3ccccc3)c3ccccc3n2)cc1` ?
Response: 89.3

Request: Param readout = growth; param system = T-47D breast; param query = `CN(C)c1ccc(N=Nc2ccc(Br)cn2)c(O)c1` ; response: value
Response: 30.2

Request: Give the reported growth for `Oc1ccc(N=Cc2ccccc2O)cc1` (system: T-47D breast).
Response: 89.4

Request: Return growth measured with T-47D breast given this compound: CC(O)CN(CC(C)O)c1ccc2c(c1)Cc1cc([N+](=O)[O-])ccc1-2 (centres undefined)
Response: 109

Request: # get_value(readout= growth, system= T-47D breast) for `FC(F)(F)Oc1ccc2nc3nc4ccc[nH]c4cc3c2c1`
Response: 41.3

Request: Lab request: please report growth under test system T-47D breast for NC(CSC(c1ccccc1)(c1ccccc1)c1ccc(Cl)cc1)C(=O)O (centres undefined)
Response: 23.7

Request: State its growth on T-47D breast: `COc1ccccc1Nc1nc(-c2cc3cccc(C(F)(F)F)c3oc2=O)cs1`
Response: 68.9

Request: Find the measured growth: item `O=C1NC(=S)NC(=O)C1CC(=O)n1c(-c2ccccc2)nc2ccccc21` , target or system T-47D breast.
Response: 95.3

Request: Record lookup: for T-47D breast, what growth belongs to `COc1ccc(CN2c3ccccc3Sc3ccccc32)c(C(F)(F)F)c1` ?
Response: 25.9

Request: Recorded growth for `CC[C@@H]1O[C@H](O[C@@H](c2cnc[nH]2)[C@H](NC(=O)c2nc([C@H](CC(N)=O)NC[C@@H](N)C(N)=O)nc(N)c2C)C(=O)N[C@H](C)[C@H](O)[C@H](C)C(=O)N[C@@H](C(=O)NCCc2nc(-c3nc(C(=O)NCCCCN=C(N)N)cs3)cs2)[C@@H](C)O)[C@H](O[C@@H]2O[C@H](CO)[C@H](O)[C@H](OC(N)=O)[C@@H]2O)[C@H](C)[C@@H]1C` with T-47D breast, please?
Response: 57.4

Request: Find the measured growth: item `O=C1c2cccc3cccc(c23)C(=O)N1CCCCCN1CCN(CCCCCOc2ccc(-c3nc4ccc(N5CCOCC5)cc4[nH]3)cc2)CC1` , target or system T-47D breast.
Response: 0.907

From: PubChem BioAssay (NCI)
